- System: Escherichia coli TOP10;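 note: peptides expressed intracellularly from a pBAD plasmid library in pooled LB shake-flask culture, induced with 0.3% L-arabinose, DNA abundance read by NGS, three biological replicates, DESeq2 with apeglm shrinkage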
- assay summary: shrunken log2 fold change of peptide-encoding DNA abundance (4.5 h post-induction vs induction); higher = less antimicrobial activity (less host growth inhibition)
- measurement parameters: time post-induction: 4.5 h; library: site-saturation at positions 5, 18, 19, 20
endpoint name: shrunken log2 fold change
One number for each entry.

Hi there! I need shrunken log2 fold change for each item below, if you can.
1. RRIRERPPRLPRPRPRPLQWPRP
2. RRIRWRPPRLPRPRPRPPGQPRP
3. RRIRFRPPRLPRPRPRPYLNPRP
4. RRIRPRPPRLPRPRPRPKLIPRP

1. 0.499
2. 0.123
3. -0.454
4. -0.0783
